The values you see were collected from ChEMBL document CHEMBL1124798.

The reader will find reported Ke values listed item by item below.
Biological target: Mu-type opioid receptor (Cavia porcellus)
Sequence (P97266 whole entry): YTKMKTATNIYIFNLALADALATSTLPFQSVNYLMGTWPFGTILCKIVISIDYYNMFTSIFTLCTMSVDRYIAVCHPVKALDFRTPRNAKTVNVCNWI
Assay: Antagonist potency was determined as the ratio of [antagonist] to (IC50 ratio-1) for Opioid receptor mu 1
Assay type: functional
property label: Ke

CN1CC[C@]23c4c5ccc(O)c4O[C@H]2c2c(c4ccccc4n2C)C[C@@]3(O)[C@H]1C5; > 135 nM
Oc1ccc2c3c1O[C@H]1c4[nH]c5ccc(F)cc5c4C[C@@]4(O)[C@@H](C2)N(CC2CC2)CC[C@]314; 49 nM
COc1ccc2[nH]c3c(c2c1)C[C@@]1(O)[C@H]2Cc4ccc(O)c5c4[C@@]1(CCN2CC1CC1)[C@H]3O5; > 63 nM
C=CCN1CC[C@]23c4c5ccc(O)c4O[C@H]2c2[nH]c4ccccc4c2C[C@@]3(O)[C@H]1C5; > 714 nM
Oc1ccc2c3c1O[C@H]1c4[nH]c5c(Br)cccc5c4C[C@@]4(O)[C@@H](C2)N(CC2CC2)CC[C@]314; 83 nM
Oc1ccc2c3c1O[C@H]1c4[nH]c5cc6ccccc6cc5c4C[C@@]4(O)[C@@H](C2)N(CC2CC2)CC[C@]314; > 118 nM
O=[N+]([O-])c1ccc2[nH]c3c(c2c1)C[C@@]1(O)[C@H]2Cc4ccc(O)c5c4[C@@]1(CCN2CC1CC1)[C@H]3O5; > 230 nM

* * *

Molecular target: Kappa-type opioid receptor (Cavia porcellus, UniProt P41144)
Sequence (P41144 whole entry): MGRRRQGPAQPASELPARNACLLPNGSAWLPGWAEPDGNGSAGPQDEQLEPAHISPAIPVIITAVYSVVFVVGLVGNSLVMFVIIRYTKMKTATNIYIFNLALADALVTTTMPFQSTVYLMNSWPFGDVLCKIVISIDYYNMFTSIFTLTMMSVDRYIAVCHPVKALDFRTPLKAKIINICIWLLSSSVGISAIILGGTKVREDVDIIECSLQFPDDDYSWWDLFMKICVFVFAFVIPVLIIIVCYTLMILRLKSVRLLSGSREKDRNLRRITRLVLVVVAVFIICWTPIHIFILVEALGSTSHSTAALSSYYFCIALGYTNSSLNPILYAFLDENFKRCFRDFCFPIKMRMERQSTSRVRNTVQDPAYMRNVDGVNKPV
Assay: Binding affinity was measured by the displacement of [3H]- EK in guinea pig brain membrane of Opioid receptor kappa 1
Format: cell membranes
property label: Ki

COc1cccc2c3c([nH]c12)[C@@H]1Oc2c(O)ccc4c2[C@@]12CCN(CC1CC1)[C@H](C4)[C@]2(O)C3; 43 nM
Oc1ccc2c3c1O[C@H]1c4[nH]c5ccc(F)cc5c4C[C@@]4(O)[C@@H](C2)N(CC2CC2)CC[C@]314; 15 nM
Oc1ccc2c3c1O[C@H]1c4[nH]c5c(F)cccc5c4C[C@@]4(O)[C@@H](C2)N(CC2CC2)CC[C@]314; 321 nM
Oc1ccc2c3c1O[C@H]1c4c(c5ccccc5n4-c4ccccc4)C[C@@]4(O)[C@@H](C2)N(CC2CC2)CC[C@]314; 746 nM

* * *

Documented Ki across a set of molecules
Biological target: Mu-type opioid receptor (Cavia porcellus)
Experiment: Binding affinity was measured by the displacement of [3H]- DAMGO in guinea pig brain membrane of Opioid receptor mu 1
Type: cell membranes
property label: Ki (nM)

Oc1ccc2c3c1O[C@H]1c4[nH]c5ccccc5c4C[C@@]4(O)[C@@H](C2)N(CC2CC2)CC[C@]314; 3.8
C=CCN1CC[C@]23c4c5ccc(O)c4O[C@H]2c2[nH]c4ccccc4c2C[C@@]3(O)[C@H]1C5; 104

* * *

Molecular target: Kappa-type opioid receptor (Cavia porcellus)
Assay: Opioid receptor kappa antagonistic activity was measured by the displacement of ethylketazocine in the guinea pig ileum at a concentration of 100 nM
Type: functional, tissue-based
property label: IC50 ratio

COc1cccc2c3c([nH]c12)[C@@H]1Oc2c(O)ccc4c2[C@@]12CCN(CC1CC1)[C@H](C4)[C@]2(O)C3; 1.5
Oc1ccc2c3c1O[C@H]1c4[nH]c5cc6ccccc6cc5c4C[C@@]4(O)[C@@H](C2)N(CC2CC2)CC[C@]314; 0.91
Oc1ccc2c3c1O[C@H]1c4[nH]c5c(F)cccc5c4C[C@@]4(O)[C@@H](C2)N(CC2CC2)CC[C@]314; 1.3
Oc1ccc2c3c1O[C@H]1c4[nH]c5c(Br)cccc5c4C[C@@]4(O)[C@@H](C2)N(CC2CC2)CC[C@]314; 1.7
COc1ccc2[nH]c3c(c2c1)C[C@@]1(O)[C@H]2Cc4ccc(O)c5c4[C@@]1(CCN2CC1CC1)[C@H]3O5; 9.2
Oc1ccc2c3c1O[C@H]1c4[nH]c5cc(F)ccc5c4C[C@@]4(O)[C@@H](C2)N(CC2CC2)CC[C@]314; 1.6
COc1ccc2c3c1O[C@H]1c4[nH]c5ccccc5c4C[C@@]4(O)[C@@H](C2)N(CC2CC2)CC[C@]314; 0.6
